Assay: PMB pharmacokinetics after a single subcutaneous dose in neutropenic thigh-infected mice (two-compartment model)
Assay type: in vivo
Conditions: male, Swiss RjOrl, mouse, plasma, sc, 40 mg/kg, plasma; single SC dose 40 mg/kg; mean ± SD; infected mice 10^6 CFU/thigh; LC-MS/MS; SD; read-out: Total PMB peak concentration (Cmax)
Structures can show the parent of a compound that is named as a salt. Bridge positions count the residues as written; N and C are the ends. Square brackets hold non-standard residues; d marks the D form. Peptide text beside a SMILES is read from it. * marks the point of attachment. X1 = CC[C@H](C)CCCCC(=O)*; Dab = NCC[C@H](N)C(=O)O
measurementKind: Cmax (ng/mL)
Hi! Could you send only the number? It should be in ng/mL, unit omitted.

Reported Cmax, compound CC[C@H](C)CCCCC(=O)N[C@@H](CCN)C(=O)N[C@H](C(=O)N[C@@H](CCN)C(=O)N[C@H]1CCNC(=O)[C@H]([C@@H](C)O)NC(=O)[C@H](CCN)NC(=O)[C@H](CCN)NC(=O)[C@H](CC(C)C)NC(=O)[C@@H](Cc2ccccc2)NC(=O)[C@H](CCN)NC1=O)[C@@H](C)O [PMB, Polymyxin B sulfate] (X1-[Dab]T[Dab][Dab][Dab][dF]L[Dab][Dab]T; lactam 4-C) : ____
13800

====

Assay: PMB pharmacokinetics after a single subcutaneous dose in neutropenic thigh-infected mice (two-compartment model)
Type: in vivo
Conditions: male, Swiss RjOrl, mouse; plasma; single SC dose 1 mg/kg; neutropenic mice infected with 10^6 CFU/thigh; LC-MS/MS; n = 3 per time point; read-out: time to peak (Tmax)
Structures can show the parent of a compound that is named as a salt. Bridge positions count the residues as written; N and C are the ends. Square brackets hold non-standard residues; d marks the D form. Peptide text beside a SMILES is read from it. * marks the point of attachment. X1 = CC[C@H](C)CCCCC(=O)*; Dab = NCC[C@H](N)C(=O)O
measurementKind: Tmax (min)
// note: answer is a bare numeric in min

// query Tmax value for entry CC[C@H](C)CCCCC(=O)N[C@@H](CCN)C(=O)N[C@H](C(=O)N[C@@H](CCN)C(=O)N[C@H]1CCNC(=O)[C@H]([C@@H](C)O)NC(=O)[C@H](CCN)NC(=O)[C@H](CCN)NC(=O)[C@H](CC(C)C)NC(=O)[C@@H](Cc2ccccc2)NC(=O)[C@H](CCN)NC1=O)[C@@H](C)O [PMB, Polymyxin B sulfate] (X1-[Dab]T[Dab][Dab][Dab][dF]L[Dab][Dab]T; lactam 4-C)
30
